target.system: human CYP1A1, CYP1A1 (gene 1543) (UniProt P04798)
Sequence (P04798 whole entry, looked up): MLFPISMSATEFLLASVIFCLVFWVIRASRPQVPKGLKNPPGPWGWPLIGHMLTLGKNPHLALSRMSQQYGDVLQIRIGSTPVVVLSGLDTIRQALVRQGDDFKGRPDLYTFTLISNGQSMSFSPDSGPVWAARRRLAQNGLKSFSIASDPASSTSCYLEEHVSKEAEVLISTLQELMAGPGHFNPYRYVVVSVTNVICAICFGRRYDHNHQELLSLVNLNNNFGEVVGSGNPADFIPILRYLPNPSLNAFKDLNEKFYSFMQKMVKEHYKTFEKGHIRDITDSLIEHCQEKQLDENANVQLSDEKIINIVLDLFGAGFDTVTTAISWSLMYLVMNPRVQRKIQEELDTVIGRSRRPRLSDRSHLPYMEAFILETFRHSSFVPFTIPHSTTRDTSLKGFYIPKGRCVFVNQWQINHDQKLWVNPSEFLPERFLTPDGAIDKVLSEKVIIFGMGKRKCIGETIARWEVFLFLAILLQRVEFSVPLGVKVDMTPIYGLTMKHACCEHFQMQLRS
experiment.summary: NVS_ADME_hCYP1A1: NovaScreen (NVS) CYP450-related Enzyme Activity (ADME) Assay for human CYP1A1 (AID 2283100)
Records with an inconclusive call do not appear. The source made the active and inactive calls. Rule for the calls: active = hit-call score of the fitted dose curve at least 0.9, where 1 is the maximum; inconclusive = response in the unintended direction; inactive = score below 0.9.
Could you please pick one outcome from this set? label 1 = active, label 0 = inactive

Would you please look over these solved cases?
input.smiles	target.system	assigned.category
Oc1ccc(C(c2ccc(O)cc2)C(Cl)(Cl)Cl)cc1	human CYP1A1, CYP1A1 (gene 1543) (UniProt P04798)	label 1
COC(=O)CSc1cc(N=c2sc(=O)n3n2CCCC3)c(F)cc1Cl	human CYP1A1, CYP1A1 (gene 1543) (UniProt P04798)	label 0
c1ccc2[nH]c(-c3cscn3)nc2c1	human CYP1A1, CYP1A1 (gene 1543) (UniProt P04798)	label 1
COC(=O)c1ccccc1C(=O)O	human CYP1A1, CYP1A1 (gene 1543) (UniProt P04798)	label 0
S=C(S)NCCNC(=S)S.[Mn+2].[S-]C([S-])=NCCN=C([S-])[S-].[Zn+2]	human CYP1A1, CYP1A1 (gene 1543) (UniProt P04798)	label 0

IN: Give the logged outcome of this assay for the following compound: `CC(C)CCCCCCc1ccc(O)cc1`
OUT: label 1

Data credit: PubChem BioAssay (EPA / NIEHS)
